Listed below are molecules with log10 IC50 for UniProt:P11511, each taken from published literature.
Sequence (P11511 whole entry): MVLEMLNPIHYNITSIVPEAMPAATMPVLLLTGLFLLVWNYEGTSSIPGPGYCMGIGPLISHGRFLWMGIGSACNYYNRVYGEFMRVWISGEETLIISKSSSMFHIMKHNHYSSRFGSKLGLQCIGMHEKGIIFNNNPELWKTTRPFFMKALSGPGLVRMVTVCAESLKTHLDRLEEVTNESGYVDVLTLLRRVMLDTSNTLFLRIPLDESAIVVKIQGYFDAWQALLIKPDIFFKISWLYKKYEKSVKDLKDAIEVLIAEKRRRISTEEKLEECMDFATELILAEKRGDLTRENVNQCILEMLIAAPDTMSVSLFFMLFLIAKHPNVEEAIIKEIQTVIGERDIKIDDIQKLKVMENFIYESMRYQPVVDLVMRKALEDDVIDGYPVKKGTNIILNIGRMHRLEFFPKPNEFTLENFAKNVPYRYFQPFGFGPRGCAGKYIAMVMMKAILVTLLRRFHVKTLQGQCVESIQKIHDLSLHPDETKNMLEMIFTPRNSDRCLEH
Quick note: numbers are log10 of IC50, with nM as the unit.

STRUCTURE NOTATION	QUANTITY MEASURED	OBSERVED MEASUREMENT
O=C(Cn1ccnc1)c1ccc(OCc2cccc(OC(F)(F)F)c2)cc1	log10 IC50	3.77
Clc1ccc(-n2ccc3ccncc32)cc1	log10 IC50	2.72
O=[N+]([O-])c1ccc(-c2cccnc2)c(OCc2ccccc2)c1	log10 IC50	2.16
O=[N+]([O-])c1ccc2[nH]c(-c3ccccc3)cc2c1	log10 IC50	3.95
O=C1CCc2cc(-c3cccnc3)cc(-c3ccsc3)c2N1	log10 IC50	2.44

Exam item: Param readout= log10 IC50; system= UniProt:P11511; entry= O=c1c2ccccc2oc2ccc(Cn3ccnc3)cc12 ; returns value.
Marked response: 3.90

Exam item: Test system UniProt:P11511; read-out log10 IC50; what value for O=C(/C=C/c1ccc(O)c(O)c1)OC[C@H]1O[C@@H](OCCc2ccc(O)c(O)c2)[C@H](O[C@@H]2OC[C@](O)(CO)[C@H]2O)[C@@H](O)[C@@H]1O ?
Marked response: 4.51

Exam item: API: value(readout=log10 IC50, system=UniProt:P11511) for record O=c1c2ccccc2oc2cccc(Cn3ccnc3)c12
Marked response: 2.18
